A collection of compounds and their measured selectivity ratio
Assay: Selectivity index, ratio of CC50 for against Macaca fascicularis Primary hepatocyte to EC50 for hepatic stage of Plasmodium berghei sporozoites GFP ANKA
Assay type: toxicity
Conditions: cynomolgus monkey, primary hepatocytes; read-out: Ratio CC50/EC50
Answer with a number only.

Solved entries:
{"Molecule smiles": "Cc1ccc(-c2cc3nc(NC(C)(C)C)nc(N4CCC(N)CC4)c3s2)cc1", "Reported": 1}
{"Molecule smiles": "Cc1ccc(-c2cc3nc(NC(C)(C)C)nc(N4CCCC4)c3s2)cc1", "Reported": 1.2}

Prompt: // lookup selectivity ratio for `Cc1ccc(-c2cc3nc(NC(C)(C)C)nc(NC4CCC4)c3s2)cc1`
Completion: 1.3

Prompt: Please report the recorded selectivity ratio for `Cc1ccc(-c2cc3nc(NC(C)(C)C)nc(N4CCC(NCc5ccc([N+](=O)[O-])cc5)CC4)c3s2)cc1` .
Completion: 2.2

Prompt: I have this compound here, `Cc1ccc(-c2cc3nc(NC(C)(C)C)nc(N4CCC4)c3s2)cc1` , and I need its recorded selectivity ratio.
Completion: 1.7

###

In this section we review reported solubility at 10 min values for a set of compounds.
Assay: Solubility of the compound in PBS buffer at 1 mg incubated for 10 mins by HPLC analysis
Assay type: physicochemical
Kindly provide the numeric value in µM only, without the unit symbol.

Consider the worked cases shown below.
{"Molecule smiles": "Cc1ccc(-c2cc3nc(NC(C)(C)C)[nH]c(=O)c3s2)cc1.Cl", "solubility at 10 min / µM": 7.92}
{"Molecule smiles": "Cc1ccc(-c2cc3nc(NC(C)(C)C)nc(NCCCN(C)C)c3s2)cc1.Cl.Cl", "solubility at 10 min / µM": 1990}
{"Molecule smiles": "CCN(CC)CCNc1nc(NC(C)(C)C)nc2cc(-c3ccc(C)cc3)sc12.Cl.Cl", "solubility at 10 min / µM": 1140}

Prompt: I'd like to know its solubility at 10 min. The compound in question is `CCN(CC)CCCNc1nc(NC(C)(C)C)nc2cc(-c3ccc(C)cc3)sc12.Cl.Cl`
Completion: 1400

Prompt: Fill in the blank: the reported solubility at 10 min of `Cc1ccc(-c2cc3nc(NC(C)(C)C)nc(NCCN(C)C)c3s2)cc1.Cl.Cl` is ____.
Completion: 1640

###

Test: Metabolic stability in CD-1 mouse liver microsomes assessed as intrinsic clearance at pH 7.4 measured upto 40 mins in presence of NADP
Format: ADME, Microsome
Details: read-out: CLH
Each record is given Criterion met if its reported microsomal CLint is strictly below 60 µL/min/mg. Records at or above 60 µL/min/mg are given Criterion not met.

Known results for molecules:
{"Molecule smiles": "CCN(CC)CCNc1nc(NC(C)(C)C)nc2cc(-c3ccc(C)cc3)sc12.Cl.Cl", "Label class": "Criterion not met"}
{"Molecule smiles": "Cc1ccc(-c2cc3nc(NC(C)(C)C)[nH]c(=O)c3s2)cc1.Cl", "Label class": "Criterion not met"}
{"Molecule smiles": "Cc1ccc(-c2cc3nc(NC(C)(C)C)nc(NCCN(C)C)c3s2)cc1.Cl.Cl", "Label class": "Criterion not met"}

# next molecule below
Prompt: Given `Cc1ccc(-c2cc3nc(NC(C)(C)C)nc(NCCCN(C)C)c3s2)cc1.Cl.Cl` , is recorded microsomal CLint strictly lower than 60 µL/min/mg?
Completion: Criterion met
